Data credit: patent US20260035355A1

# experiment_description: Evaluation of cell membrane permeability
# Type: in vitro ADME
# run_conditions: 10 μM, 120 minutes; read-out: Efflux Ratio (Papp B to A/Papp A to B)
Reported values of efflux ratio at 120 min, 10 μM for individual entries

[[record]]
compound = "C[C@H]1O[C@@H](O[C@H]2[C@@H](O)C[C@H](O[C@H]3[C@@H](O)C[C@H](O[C@H]4CC[C@@]5(C)[C@H](CC[C@@H]6[C@@H]5C[C@@H](O)[C@]5(C)[C@@H](C7=CC(=O)OC7)CC[C@]65O)C4)O[C@@H]3C)O[C@@H]2C)C[C@H](O)[C@@H]1O"
reported_value = 44.7


input: Read the entry O=C(COc1ccc(Cl)c(F)c1)NC1CC2(C1)CC(c1nnc(N3CC(OC(F)(F)F)C3)o1)C2 (centres unmarked) and write its reported efflux ratio at 120 min, 10 μM.
output: 1.05

----------
# experiment_description: Pharmacokinetic evaluation in mice
# Type: in vivo
# run_conditions: plasma; mouse IV 1 mg/kg
experimental_readout: AUC(0-inf) (ng·h/mL)
Field format: number, assumed ng·h/mL, no unit text.

input: Supply measured AUC(0-inf) of O=C(COc1ccc(Cl)c(F)c1)NC1CC2(C1)CC(c1nnc(N3CC(OC(F)(F)F)C3)o1)C2 (stereo not shown) in your reply.
output: 2230

----------
# experiment_description: Pharmacokinetic evaluation in mice
# Assay type: in vivo
# run_conditions: plasma; mouse PO 30 mg/kg
experimental_readout: bioavailability (%)
Numeric answer only, unit % assumed.

input: Quickly give me recorded bioavailability for O=C(COc1ccc(Cl)c(F)c1)NC1CC2(C1)CC(c1nnc(N3CC(OC(F)(F)F)C3)o1)C2 (stereo not shown)
output: 177

----------
# target_desc: eIF2B (Homo sapiens, UniProt P49770+Q9UI10)
# Construct: endogenous in cells; host or cells: HEK293T/17-ATF4 uORF-Luc-Puro monoclonal cells
# Sequence (P49770 whole entry): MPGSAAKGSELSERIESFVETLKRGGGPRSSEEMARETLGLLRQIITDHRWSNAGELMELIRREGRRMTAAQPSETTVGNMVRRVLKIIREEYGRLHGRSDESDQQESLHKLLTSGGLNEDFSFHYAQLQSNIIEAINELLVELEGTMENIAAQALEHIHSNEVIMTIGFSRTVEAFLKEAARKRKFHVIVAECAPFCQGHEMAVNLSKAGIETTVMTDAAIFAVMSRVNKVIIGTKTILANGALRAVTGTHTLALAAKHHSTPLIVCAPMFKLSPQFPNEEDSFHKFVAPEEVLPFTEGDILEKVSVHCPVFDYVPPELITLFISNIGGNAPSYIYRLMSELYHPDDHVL
# Sequence (Q9UI10 whole entry): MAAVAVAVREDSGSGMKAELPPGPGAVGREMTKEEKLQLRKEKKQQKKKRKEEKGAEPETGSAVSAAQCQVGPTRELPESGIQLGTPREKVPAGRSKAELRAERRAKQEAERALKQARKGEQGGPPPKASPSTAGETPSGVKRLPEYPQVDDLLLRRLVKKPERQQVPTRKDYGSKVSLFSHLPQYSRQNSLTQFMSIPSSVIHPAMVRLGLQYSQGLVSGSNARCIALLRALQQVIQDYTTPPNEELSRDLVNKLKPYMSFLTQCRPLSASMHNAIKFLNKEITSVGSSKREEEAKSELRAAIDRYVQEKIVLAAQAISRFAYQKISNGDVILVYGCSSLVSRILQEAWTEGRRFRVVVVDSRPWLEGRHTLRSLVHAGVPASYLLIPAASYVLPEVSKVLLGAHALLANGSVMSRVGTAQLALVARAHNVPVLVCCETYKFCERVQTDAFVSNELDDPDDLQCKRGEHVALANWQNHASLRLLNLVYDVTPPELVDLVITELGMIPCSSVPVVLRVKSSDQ
# Sequence (Q14232 whole entry partner): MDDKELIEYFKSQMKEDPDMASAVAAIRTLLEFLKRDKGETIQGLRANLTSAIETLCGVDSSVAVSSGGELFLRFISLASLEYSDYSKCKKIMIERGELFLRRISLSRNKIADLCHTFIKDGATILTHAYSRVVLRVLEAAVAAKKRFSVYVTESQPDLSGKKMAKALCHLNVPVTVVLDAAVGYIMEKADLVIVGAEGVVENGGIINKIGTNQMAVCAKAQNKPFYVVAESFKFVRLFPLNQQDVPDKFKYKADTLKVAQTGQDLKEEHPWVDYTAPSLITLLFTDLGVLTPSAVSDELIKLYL
# Sequence (Q9NR50 whole entry partner): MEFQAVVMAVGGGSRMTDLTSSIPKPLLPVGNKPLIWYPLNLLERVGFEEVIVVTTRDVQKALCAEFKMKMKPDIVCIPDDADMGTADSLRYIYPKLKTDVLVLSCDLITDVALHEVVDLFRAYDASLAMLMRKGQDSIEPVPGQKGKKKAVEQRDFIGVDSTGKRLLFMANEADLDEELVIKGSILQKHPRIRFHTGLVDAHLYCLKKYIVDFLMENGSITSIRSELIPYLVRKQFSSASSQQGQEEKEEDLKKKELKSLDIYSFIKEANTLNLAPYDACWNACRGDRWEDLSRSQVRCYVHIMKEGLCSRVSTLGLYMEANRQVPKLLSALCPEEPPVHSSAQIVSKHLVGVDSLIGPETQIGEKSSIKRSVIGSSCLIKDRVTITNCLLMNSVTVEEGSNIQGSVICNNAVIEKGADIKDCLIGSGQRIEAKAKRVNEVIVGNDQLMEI
# Sequence (Q13144 whole entry partner): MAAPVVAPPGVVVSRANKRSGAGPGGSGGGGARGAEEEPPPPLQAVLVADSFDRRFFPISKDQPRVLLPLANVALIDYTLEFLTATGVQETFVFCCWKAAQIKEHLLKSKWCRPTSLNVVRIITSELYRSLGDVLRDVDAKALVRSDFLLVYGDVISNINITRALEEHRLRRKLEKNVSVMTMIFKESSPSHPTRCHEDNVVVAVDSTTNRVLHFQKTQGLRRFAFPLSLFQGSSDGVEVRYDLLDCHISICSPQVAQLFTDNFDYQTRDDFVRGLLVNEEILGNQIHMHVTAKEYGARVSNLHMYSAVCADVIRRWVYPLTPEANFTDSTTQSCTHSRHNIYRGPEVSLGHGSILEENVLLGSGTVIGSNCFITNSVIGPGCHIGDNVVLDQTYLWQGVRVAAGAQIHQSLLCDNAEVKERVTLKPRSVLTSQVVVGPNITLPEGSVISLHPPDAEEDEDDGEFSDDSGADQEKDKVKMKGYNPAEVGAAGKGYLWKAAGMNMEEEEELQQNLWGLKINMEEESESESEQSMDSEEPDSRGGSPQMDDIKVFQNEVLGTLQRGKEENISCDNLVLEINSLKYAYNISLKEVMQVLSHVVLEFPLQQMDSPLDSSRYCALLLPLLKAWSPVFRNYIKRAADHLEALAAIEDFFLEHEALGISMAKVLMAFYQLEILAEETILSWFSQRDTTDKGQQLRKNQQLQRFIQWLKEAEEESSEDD
# experiment_description: ATF4-Luc assay (ATF4 luciferase reporter, thapsigargin-induced stress)
# Assay type: cell-based
# run_conditions: HEK293T/17-ATF4 uORF-Luc-Puro monoclonal cells, 50 nM thapsigargin, incubated for 6 hours
pEC50: −log10 of the molar value.
Measured pEC50, listed per entry for reference.

Some entries whose results are on file:
[[record]]
compound = "O=C(COc1ccc(Cl)c(F)c1)NC1CC2(C1)CC(NC(=O)C1CNc3cc(Cl)ccc3O1)C2 (centres unmarked)"
reported_value = "7.00 to 8.00"

[[record]]
compound = "O=C(COc1ccc(Cl)c(F)c1)NC1COC2(C1)CN(C(=O)[C@H]1CNc3cc(Cl)ccc3O1)C2 (some centres unmarked)"
reported_value = "< 7.00"

[[record]]
compound = "O=C(COc1ccc(Cl)c(F)c1)NC1CC12CCN(NC(=O)COc1ccc(Cl)c(F)c1)CC2 (centres unmarked)"
reported_value = "< 7.00"

[[record]]
compound = "O=C(COc1ccc(Cl)c(F)c1)NC1CC2(CCN(C(=O)COc3ccc(Cl)c(F)c3)CC2)C1"
reported_value = "7.00 to 8.00"

[[record]]
compound = "O=C(NC1CC12CCN(C(=O)c1cc3cc(Cl)ccc3o1)CC2)c1cc2cc(Cl)ccc2o1 (centres unmarked)"
reported_value = "< 7.00"

[[record]]
compound = "O=C(COc1ccc(Cl)c(F)c1)NC1CCC2(CC1)CN(C(=O)COc1ccc(Cl)c(F)c1)C2"
reported_value = "7.00 to 8.00"

[[record]]
compound = "O=C(COc1ccc(Cl)c(F)c1)NC1CC2(CCN(C(=O)[C@H]3CNc4cc(Cl)ccc4O3)CC2)C1"
reported_value = "> 8.00"

[[record]]
compound = "O=C(COc1ccc(Cl)c(F)c1)NC1CCC2(CC1)CN(C(=O)c1cnc(C(F)F)cn1)C2"
reported_value = "< 7.00"


Now turn to the next compound.
input: State its pEC50: "O=C(CO[C@H]1C[C@@H](OC(F)(F)F)C1)NC1CC2(CCN(C(=O)COc3ccc(Cl)c(F)c3)CC2)C1"
output: < 7.00
